Test system: 22Rv1
Experiment: Cell proliferation
Type: cell-based
Conditions: read-out: growth inhibition IC50; 22Rv1

| Smiles Structure | IC50, µM |
| --- | --- |
| CO[C@H]1CC[C@H](n2c([C@@H]3CCCC(=O)N3c3ccc(F)c(F)c3)nc3cc(-c4c(C)noc4C)ccc32)CC1 | 0.096 |
